Experiment: Pharmacokinetics after oral administration to healthy human volunteers
Type: in vivo
Conditions: human, serum, po, 5 mg, composition providing about 5 mg, healthy human volunteers, read-out: AUC values measured from t=0 to 1 hr.
Readout Kind: AUC

Lab book: AUC of COCCOc1ccc(N2CCN(CCN3N=CC4c5nc(-c6ccco6)nn5C(N)=NC43)CC2)cc1 (stereo not shown) [compound of Formula I] noted as 352 to 478 ng·h/mL
